target: HMGCoAR (catalytic domain) (Homo sapiens); construct: finally the HMGCoAR (catalytic domain) (2 µL); purchased Sigma-Aldrich; assay: HMGCoAR activity assay; assay type: biochemical; conditions: 10-500 µM peptide, 37 °C, NADPH absorbance 340 nm at 0 and 10 min
Sequence (P04035 340-888 limits assumed): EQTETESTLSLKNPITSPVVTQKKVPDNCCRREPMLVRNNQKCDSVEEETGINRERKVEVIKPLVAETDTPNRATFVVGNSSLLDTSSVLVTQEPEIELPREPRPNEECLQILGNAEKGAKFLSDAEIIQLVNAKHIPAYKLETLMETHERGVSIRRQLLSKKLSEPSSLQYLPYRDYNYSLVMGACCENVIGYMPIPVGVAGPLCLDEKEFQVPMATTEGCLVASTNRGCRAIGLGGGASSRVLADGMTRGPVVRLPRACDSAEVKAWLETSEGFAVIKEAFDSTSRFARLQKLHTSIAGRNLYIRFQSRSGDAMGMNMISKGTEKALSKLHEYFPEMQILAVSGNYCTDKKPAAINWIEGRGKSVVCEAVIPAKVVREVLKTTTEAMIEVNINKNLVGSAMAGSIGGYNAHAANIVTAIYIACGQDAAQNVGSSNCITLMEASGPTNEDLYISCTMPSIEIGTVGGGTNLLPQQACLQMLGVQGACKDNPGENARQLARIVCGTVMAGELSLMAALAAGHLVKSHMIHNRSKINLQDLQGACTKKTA
pIC50: −log10 of the molar value. No end group written: not given here.
Metric Name: pIC50

# Substance, Test System, Test Result
records = [
    ("H-LPKHSDAD-OH [Peptide P5-met]", "HMGCoAR (catalytic domain) (Homo sapiens)", 3.76),
    ("LILPKHSDAD [Peptide P5]", "HMGCoAR (catalytic domain) (Homo sapiens)", 3.83),
]

Where do these numbers come from? They come from paper PMC8000724.
